# test-details: Bidirectional transport across the Caco-2 cell monolayer (Papp, efflux ratio, mass balance)
# experimental-context: human, Caco-2, pH 7.4
measured-quantity: Papp B→A at 90 min, 50 μM (×10⁻⁶ cm/s)
Write the value in ×10⁻⁶ cm/s as a bare number.

1) O=c1c(-c2ccc(O)cc2)coc2c([C@@H]3O[C@H](CO[C@@H]4OC[C@](O)(CO)[C@H]4O)[C@@H](O)[C@H](O)[C@H]3O)c(O)ccc12 [Compound 6, mirificin]	0.23

Field: next compound
Item COc1ccc(-c2coc3cc(O)ccc3c2=O)cc1 [Compound 12, formononetin] has what recorded Papp B→A at 90 min, 50 μM?
26.5

* * *

# test-details: in vitro
# experimental-context: human, Caco-2, pH 7.4, Level (order of magnitude) of Papp
measured-quantity: Papp at 1 h, 50 μM

Item O=c1c(-c2ccc(O)cc2)coc2cc(O)ccc12 [Compound 10, daidzein] has what recorded Papp at 1 h, 50 μM?
~10 ×10⁻⁶ cm/s

* * *

# test-details: Bidirectional transport across the Caco-2 cell monolayer (Papp, efflux ratio, mass balance)
# experimental-context: human, Caco-2, pH 7.4, Total Recovery (%) AP→BL, mass balance, total amount in AP and BL sides; incubation up to 90 min; n = 3
measured-quantity: recovery at 90 min, 50 μM (%)
Write the value in % as a bare number.

Item COc1cc(-c2coc3c(C4OC(CO)C(O)C(O)C4O)c(O)ccc3c2=O)ccc1O (stereo not shown) has what recorded recovery at 90 min, 50 μM?
94.6

Item O=c1c(-c2ccc(O)cc2)coc2cc(O)cc(O)c12 has what recorded recovery at 90 min, 50 μM?
86.7

Item COc1ccc(-c2coc3cc(O)ccc3c2=O)cc1 has what recorded recovery at 90 min, 50 μM?
102

Item O=c1c(-c2ccc(O)cc2)coc2cc(O[C@@H]3O[C@H](CO)[C@@H](O)[C@H](O)[C@H]3O)ccc12 has what recorded recovery at 90 min, 50 μM?
99.8

* * *

# test-details: Bidirectional transport across the Caco-2 cell monolayer (Papp, efflux ratio, mass balance)
# experimental-context: human, Caco-2, pH 7.4, Level (order of magnitude) of Papp, Caco-2 monolayer
measured-quantity: Papp at 1 h, 50 μM

Known Papp at 1 h, 50 μM results, listed for orientation:
1) COc1ccc(C2=CC(=O)OC2Cc2ccc(O)cc2)c(OC2OC(CO)C(O)C(O)C2O)c1 (racemic) [Compound 8, (±)-puerol B-2″-O-glucopyranoside]	~1 ×10⁻⁶ cm/s
2) O=C1C=C(c2ccc(O)cc2O)[C@@H](Cc2ccc(O)cc2)O1 [Compound 9, puerol A]	~1 ×10⁻⁶ cm/s
3) COc1ccc(-c2coc3cc(O)ccc3c2=O)cc1 [Compound 12, formononetin]	~10 ×10⁻⁶ cm/s
4) O=c1c(-c2ccc(O)cc2)coc2c([C@@H]3O[C@H](CO)[C@@H](O)[C@H](O)[C@H]3O)c(O)ccc12 [Compound 4, puerarin]	~0.1 ×10⁻⁶ cm/s

Field: next compound
Item O=c1c(-c2ccc(O)cc2)coc2cc(O)cc(O)c12 [Compound 11, genistein] has what recorded Papp at 1 h, 50 μM?
~10 ×10⁻⁶ cm/s

* * *

# test-details: Bidirectional transport across the Caco-2 cell monolayer (Papp, efflux ratio, mass balance)
# experimental-context: human, Caco-2, pH 7.4
Reported efflux ratio at 1 h, 50 μM values follow for various molecules

Known efflux ratio at 1 h, 50 μM results, listed for orientation:
1) COc1cc(-c2coc3c(C4OC(CO)C(O)C(O)C4O)c(O)ccc3c2=O)ccc1O (stereo not shown) [Compound 5, 3′-methoxypuerarin]	0.63
2) O=c1c(-c2ccc(O)c(O)c2)coc2c(C3OC(CO)C(O)C(O)C3O)c(O)ccc12 (stereo not shown) [Compound 1, 3′-hydroxypuerarin]	0.64
3) COc1ccc(C2=CC(=O)OC2Cc2ccc(O)cc2)c(OC2OC(CO)C(O)C(O)C2O)c1 (racemic) [Compound 8, (±)-puerol B-2″-O-glucopyranoside]	0.8

Field: next molecule
Item O=c1c(-c2ccc(O)cc2)coc2cc(O)cc(O)c12 [Compound 11, genistein] has what recorded efflux ratio at 1 h, 50 μM?
1.16
